Recorded values, source patent US20250333397A1.

System: Target C mRNA
test: RT-qPCR splicing assay panel, Target C canonical junction (CJ) mRNA
Assay type: cell-based, human
condition.description: Homo sapiens, Table 4B; gene panel; read-out: Target C (IC50, decrease in CJ mRNA levels)
pIC50: −log10 of the molar value.
observed.property: pIC50

Past entries and their recorded results:
INSERT INTO results (compound, assayed_system, recorded_measurement) VALUES
  ('Cc1nc2cc(O)c(-c3ccc(N4CC[C@H](N(C)C(C)(C)C)C4)nn3)cc2o1 [Compound 858]', 'Target C mRNA', '6.00 to 7.00'),
  ('Cn1c(=O)oc2cc(-c3ccc(N4CCC(NC(C)(C)C)C4)nn3)c(O)cc21 (stereo not drawn) [Compound 800]', 'Target C mRNA', '6.00 to 7.00'),
  ('Cc1nc2ccc(-c3ccc(N4CCC(NC(C)(C)C)C4)nn3)nc2o1 (stereo not drawn) [Compound 832]', 'Target C mRNA', '6.00 to 7.00'),
  ('Cn1cc2cc(-c3cnc(N4CC[C@@H](NC(C)(C)C)C4)nn3)c(O)cc2n1 [Compound 805]', 'Target C mRNA', '5.00 to 6.00'),
  ('Cn1cc2cc(-c3ccc(N4CCC(NC(C)(C)C)C4)nn3)c(O)cc2n1 (stereo not drawn) [Compound 801]', 'Target C mRNA', '5.00 to 6.00');

Quick check: pIC50 on Target C mRNA, item CCC(C)(C)NC1CCN(c2ccc(-c3cc4oc(C)nc4cc3O)nn2)C1 (stereo not drawn) [Compound 836] ?
5.00 to 6.00

Entry Cc1nc2cc(O)c(-c3cnc(N4CC[C@H](NC(C)(C)C)C4)nn3)cc2o1 [Compound 809] , system Target C mRNA: what pIC50 was measured?
5.00 to 6.00

Provide the documented pIC50 with Target C mRNA as the system for Cc1nc2cc(O)c(-c3ccc(N4CCC(NC5CCC5)C4)nn3)cc2o1 (stereo not drawn) [Compound 830]
< 5.00

Provide the documented pIC50 with Target C mRNA as the system for Cc1nc2cc(O)c(-c3ccc(N4CC[C@@H](N(C)C(C)(C)C)C4)nn3)cc2o1 [Compound 859]
5.00 to 6.00

----------
Listed next: entries and their corresponding pIC50.
Tested on: HTT mRNA
test: RT-qPCR splicing assay, HTT canonical (CJ) and alternative (AJ) junction mRNA
Type: cell-based, human
condition.description: Homo sapiens, 24 h, Table 3A; A673 or K562 cells, 24 h treatment; read-out: HTT CJ (IC50, decrease in CJ mRNA)
pIC50: −log10 of the molar value.

What pIC50 value was documented for this molecule, Cc1ncc(-c2cc(O)c(-c3ccc(N4CC[C@@H](NC5CCC5)C4)nn3)cc2F)o1 [Compound 228] ?
6.00 to 7.00

Which pIC50 value belongs to COc1cc(-c2cc(O)c(-c3ccc(N4CC[C@@H](NC5CCC5)C4)nn3)cc2F)cnn1 [Compound 230] ?
6.00 to 7.00

Suppose we examine the molecule Cn1ncc(-c2ccc(-c3ccc(N4CC[C@@H](NC(C)(C)C)C4)nn3)c(O)c2)cc1=O [Compound 297] ; what pIC50 value has been reported?
> 7.00

GET /values?readout=pIC50&item= COc1cc(-c2cc(O)c(-c3ccc(N4CCC(NCC5CC5)C4)nn3)cc2F)ncn1 (centres unmarked) [Compound 417]
5.00 to 6.00

Reported pIC50, molecule Cc1ncc(-c2cc(O)c(-c3ccc(N4CCC(NC5CCOCC5)C4)nn3)cc2F)s1 (centres unmarked) [Compound 354] : ____
> 7.00

----------
Test system: Target C mRNA
test: RT-qPCR splicing assay panel, Target C canonical junction (CJ) mRNA
Type: cell-based, human
condition.description: Homo sapiens, canonical junction (CJ) mRNA, RT-qPCR panel, Table 4A; read-out: Target C, decrease in CJ mRNA levels, IC50
pIC50: −log10 of the molar value.
pIC50 overview

Name the recorded pIC50 for COc1cncc(-c2ccc(-c3ccc(N4CC[C@H](NC5CCC5)C4)nn3)c(O)c2)c1 .
5.00 to 6.00

Fill in the blank: the reported pIC50 of Oc1cc(-c2cn[nH]c2)c(F)cc1-c1ccc(N2CCC(NC3CC3)C2)nn1 (stereo in doubt) is ____.
> 7.00

Consider the compound Cc1nsc(-c2cc(O)c(-c3ccc(N4CC[C@H](NCC5CC5)C4)nn3)cc2F)n1 and give its measured pIC50.
6.00 to 7.00

Bench note: what pIC50 did COc1cc(-c2ccc(-c3ccc(N4CC[C@H](NC(C)(C)C)C4)nn3)c(O)c2)ncn1 show?
> 7.00

Can you look up the measured pIC50 of COc1cc(-c2ccc(-c3ccc(N4CC[C@@](C)(NCC5CC5)C4)nn3)c(O)c2)ncn1 for me?
6.00 to 7.00

// pIC50 lookup, key: Cc1cn2cc(-c3ccc(-c4ccc(N5CCC(NC6CCC6)C5)nn4)c(O)c3)ncc2n1 (centres unmarked)
5.00 to 6.00

// query pIC50 value for entry COc1cc(-c2cc(O)c(-c3ccc(N4CCC(N[C@H]5C[C@@H](F)C5)C4)nn3)cc2F)cnn1 (some centres unmarked)
6.00 to 7.00

Consider the compound COc1cc(-c2ccc(-c3ccc(N4CC[C@@H](NC5CCC5)C4)nn3)c(O)c2)ncn1 and give its measured pIC50.
6.00 to 7.00

Give the measured pIC50 of Oc1cc(-c2cnnc(C3CC3)c2)ccc1-c1ccc(N2CC[C@H](NC3CCC3)C2)nn1 .
< 5.00

# pIC50 lookup, item Cc1nc(-c2ccc(-c3ccc(N4CCC(NC5CCC5)C4)nn3)c(O)c2)cs1 (centres unmarked)
< 5.00

Reported pIC50 for CN(c1ccc(-c2ccc(-c3cn[nH]c3)cc2O)nn1)C1CC(C)(C)NC(C)(C)C1 : what is it?
> 7.00

Would you mind telling me what pIC50 value was observed for COc1nc(-c2cnc(N3CCC(NC(C)(C)C)C3)nn2)ccc1-c1cnc(C)s1 (centres unmarked) ?
6.00 to 7.00

----------
Tested on: Target C mRNA
test: RT-qPCR splicing assay panel, Target C canonical junction (CJ) mRNA
Assay type: cell-based, human
condition.description: Homo sapiens, canonical junction (CJ) mRNA, RT-qPCR panel, Table 4A; read-out: Target C, decrease in CJ mRNA levels, IC50
pIC50: −log10 of the molar value.
observed.property: pIC50

Quick check: pIC50 of COc1cc(-c2ccc(-c3ccc(N4CC[C@@H](NC5CCC5)C4)nn3)c(O)c2)cnn1 ?
6.00 to 7.00

# lookup: pIC50 of COc1cc(-c2ccc(-c3ccc(N4CC[C@H](NC(C)(C)C)C4)nn3)c(O)c2)cnn1
> 7.00

# lookup: pIC50 of COc1cc(-c2ccc(-c3ccc(N4CC[C@@H](NC(C)(C)C)C4)nn3)c(O)c2)cnn1
> 7.00

Quick check: pIC50 of COc1cc(-c2cc(O)c(-c3ccc(N4CC[C@@H](NC(C)(C)C)C4)nn3)cc2F)cnn1 ?
> 7.00

Given the molecule Cc1nnc(-c2cc(O)c(-c3ccc(N4CC[C@@H](NC5CCC5)C4)nn3)cc2F)s1 , what is its reported pIC50?
5.00 to 6.00
